experiment: In vitro dissociation of the water soluble taxane derivatives in blood plasma of rat; assay type: in vitro ADME, SD rats; conditions: 37° C., 10 min
Where a name gives a salt, the structure may show the parent alone.
dissociation percent values, listed per item
observation type: dissociation percent (%)

{"molecule": "CC(=O)O[C@@]12CO[C@@H]1C[C@H](O)[C@@]1(C)C(=O)[C@H](O)C3=C(C)[C@@H](OC(=O)[C@H](OC(=O)[C@@H](F)CCN(C)C)[C@@H](NC(=O)OC(C)(C)C)c4ccccc4)C[C@@](O)([C@@H](OC(=O)c4ccccc4)[C@H]21)C3(C)C.Cl [Compound 05]", "unit name": "%", "numeric result": 100}
{"molecule": "CC(=O)O[C@@]12CO[C@@H]1C[C@H](O)[C@@]1(C)C(=O)[C@H](O)C3=C(C)[C@@H](OC(=O)[C@H](OC(=O)C(F)CCN(C)C)[C@@H](NC(=O)OC(C)(C)C)c4ccccc4)C[C@@](O)([C@@H](OC(=O)c4ccccc4)[C@H]21)C3(C)C.CS(=O)(=O)O (stereo partly drawn) [Compound C6]", "unit name": "%", "numeric result": 100}
{"molecule": "COC1C(=O)C2(C)C(OC)CC3OCC3(OC(C)=O)C2C(OC(=O)c2ccccc2)C2(O)CC(OC(=O)C(OC(=O)C(CCN)C(F)F)C(NC(=O)OC(C)(C)C)c3ccccc3)C(C)=C1C2(C)C.O=S(=O)([O-])O.[Na+] (stereo not drawn) [Compound 10]", "unit name": "%", "numeric result": 96.8}
{"molecule": "CC(=O)O[C@@]12CO[C@@H]1C[C@H](O)[C@@]1(C)C(=O)[C@H](O)C3=C(C)[C@@H](OC(=O)[C@H](OC(=O)C(F)(F)CCCCCN4CC4)[C@@H](NC(=O)OC(C)(C)C)c4ccccc4)C[C@@](O)([C@@H](OC(=O)c4ccccc4)[C@H]21)C3(C)C.CS(=O)(=O)O [Compound 14]", "unit name": "%", "numeric result": 72.5}
{"molecule": "CO[C@H]1C(=O)[C@]2(C)[C@@H](OC)C[C@H]3OC[C@@]3(OC(C)=O)[C@H]2[C@H](OC(=O)c2ccccc2)[C@]2(O)C[C@H](OC(=O)[C@H](OC(=O)[C@H](F)CCN(C)C)[C@@H](NC(=O)OC(C)(C)C)c3ccccc3)C(C)=C1C2(C)C [Compound 07, hydrochloride]", "unit name": "%", "numeric result": 100}
{"molecule": "COC1C(=O)C2(C)C(OC)CC3OCC3(OC(C)=O)C2C(OC(=O)c2ccccc2)C2(O)CC(OC(=O)C(OC(=O)C(F)CCN(C)C)C(NC(=O)OC(C)(C)C)c3ccccc3)C(C)=C1C2(C)C.Cl (stereo not drawn) [Compound 09]", "unit name": "%", "numeric result": 100}
{"molecule": "CCN(CC)CC[C@](C)(C(=O)O[C@@H](C(=O)O[C@H]1C[C@@]2(O)[C@@H](OC(=O)c3ccccc3)[C@@H]3[C@]4(OC(C)=O)CO[C@@H]4C[C@H](OC)[C@@]3(C)C(=O)[C@H](OC)C(=C1C)C2(C)C)[C@@H](NC(=O)OC(C)(C)C)c1ccccc1)C(F)(F)F.CS(=O)(=O)O [Compound 11]", "unit name": "%", "numeric result": 97.2}
{"molecule": "CC(=O)O[C@H]1C(=O)[C@@]2(C)[C@H]([C@H](OC(=O)c3ccccc3)[C@]3(O)C[C@H](OC(=O)[C@H](OC(=O)C(F)CCN(C)C)[C@@H](NC(=O)c4ccccc4)c4ccccc4)C(C)=C1C3(C)C)[C@]1(OC(C)=O)CO[C@@H]1C[C@@H]2O.CS(=O)(=O)O (stereo partly drawn) [Compound C3]", "unit name": "%", "numeric result": 100}
{"molecule": "CC(=O)O[C@H]1C(=O)[C@@]2(C)[C@H]([C@H](OC(=O)c3ccccc3)[C@]3(O)C[C@H](OC(=O)[C@H](OC(=O)[C@H](F)CCN(C)C)[C@@H](NC(=O)c4ccccc4)c4ccccc4)C(C)=C1C3(C)C)[C@]1(OC(C)=O)CO[C@@H]1C[C@@H]2O.CS(=O)(=O)O [Compound C1]", "unit name": "%", "numeric result": 100}
{"molecule": "CC(=O)O[C@H]1C(=O)[C@@]2(C)[C@H]([C@H](OC(=O)c3ccccc3)[C@]3(O)C[C@H](OC(=O)[C@H](OC(=O)[C@H](F)CCN(C)C)[C@@H](NC(=O)c4ccccc4)c4ccccc4)C(C)=C1C3(C)C)[C@]1(OC(C)=O)CO[C@@H]1C[C@@H]2O.Cl [Compound 01]", "unit name": "%", "numeric result": 100}
{"molecule": "CC(=O)O[C@@]12CO[C@@H]1C[C@H](O)[C@@]1(C)C(=O)[C@H](O)C3=C(C)[C@@H](OC(=O)[C@H](OC(=O)[C@@H](F)CCN(C)C)[C@@H](NC(=O)OC(C)(C)C)c4ccccc4)C[C@@](O)([C@@H](OC(=O)c4ccccc4)[C@H]21)C3(C)C.CS(=O)(=O)O [Compound C5]", "unit name": "%", "numeric result": 100}
{"molecule": "CC(=O)O[C@@]12CO[C@@H]1C[C@H](O)[C@@]1(C)C(=O)[C@H](O)C3=C(C)[C@@H](OC(=O)[C@H](OC(=O)[C@H](F)CCN(C)C)[C@@H](NC(=O)OC(C)(C)C)c4ccccc4)C[C@@](O)([C@@H](OC(=O)c4ccccc4)[C@H]21)C3(C)C.CS(=O)(=O)O [Compound C4]", "unit name": "%", "numeric result": 100}
